Entries and their normalized growth
protocol_description: chemical genetic growth profiling, strain panel (AID 1159580);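 note: tested at 20 µM; growth read once vehicle control cultures reached saturation at 30 °C; 1 = growth at the plate median or of vehicle wells; lower values mean less growth of the strain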
reported_conditions: S. cerevisiae deletion strains, growth OD, locus YOR080W, strain dia2, hits give low values
Out of some 5,500 compounds screened, about 2,000 (36%) were called active. About 18% were inconclusive and are not listed. The list shows a part of the results.
metric: normalized growth

* O=C(C1CCCCC1)N1CC(=O)N2CCc3ccccc3C2C1 (stereo not drawn) | 1.01
* CCN(CC)CCOC(=O)c1ccc(N)cc1 | 0.996
* COc1ccc(-c2coc3cc(OC)cc(OC)c3c2=O)cc1 | 1

====

protocol_description: chemical genetic growth profiling, strain panel (AID 1159580);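 note: tested at 20 µM; growth read once vehicle control cultures reached saturation at 30 °C; 1 = growth at the plate median or of vehicle wells; lower values mean less growth of the strain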
reported_conditions: S. cerevisiae deletion strains, growth OD, locus YOR136W, strain idh2, hits give low values
The campaign covered roughly 5,500 compounds. About 2,000 (36%) were called active. Inconclusive results (about 18%) are left out. Some of the results follow.
metric: normalized growth

- COC(=O)C(O)c1ccccc1 (centres undefined): 0.989
- C#CCCCCCCCCCCCC(O)CC(O)COC(C)=O (centres undefined): 0.934
- CC(C)[C@@H]1CC[C@@H](C)C[C@H]1O: 1.01
- CCCCCCOc1ccccc1C(N)=O: 0.719
- COC(=O)[C@@H]1OC(=O)[C@H]2O[C@@]23[C@@]1(C)CCC1[C@@]2(C)CCC(=O)C(C)(C)C2C[C@@H](OC(C)=O)[C@]13C (some centres undefined): 1.01
- OCc1ccccc1O: 0.992
- CC1(C)NC(=O)N(c2ccc([N+](=O)[O-])c(C(F)(F)F)c2)C1=O: 0.977
- CC(C)C(=O)Nc1ccc([N+](=O)[O-])c(C(F)(F)F)c1: 0.981
- CC(=O)OCC[C@H](C)CCC=C(C)C: 1.02
- Cc1cc(-c2ccccc2)nnc1NCCN1CCOCC1: 0.978
- CC(=O)N[C@@H](CS)C(=O)O: 1.03
- Oc1ccc(Cl)cc1Cc1cc(Cl)ccc1O: 0.0708
- O=C(O)CN1C(=O)c2cccc3cccc(c23)C1=O: 0.991
- OC(Cn1cncn1)(Cn1cncn1)c1ccc(F)cc1F: 0.979
